// data source = paper PMC10692721

The reader will find reported cC0-C2 FLT change (% change from DMSO, FLT of TMR-MyBP-C) values listed item by item below.
System: TMR-cC0-C2 (C0-C2 fragment of human cMyBP-C)
methodDescription: FLT-TMR concentration-response assay (FLT of TMR on cC0-C2, no actin)
Type: binding
experimentalConditions: 60 μM compound
Structures can show the parent of a compound that is named as a salt.
Unit % implied. Number only.

Solved cases below.
# molecule, unitSpec, readoutValue
measured = [
    ("CCC(=O)O[C@H]1[C@H](O[C@@H]2[C@@H](C)[C@H](O[C@H]3C[C@@](C)(OC)[C@@H](O)[C@H](C)O3)[C@@H](C)C(=O)O[C@H](CC)[C@@](C)(O)[C@H](O)[C@@H](C)C(=O)[C@H](C)C[C@@]2(C)O)O[C@H](C)C[C@@H]1N(C)C [Erythromycin estolate]", "%", "−14.1"),
    ("C#Cc1cccc(Nc2ncnc3cc(OCCOC)c(OCCOC)cc23)c1 [Erlotinib HCl]", "%", 11.8),
]

// cC0-C2 FLT change (% change from DMSO, FLT of TMR-MyBP-C) lookup, molecule = C[C@H]1O[C@@H](O[C@H]2CC[C@@]3(C)[C@@H](CC[C@]4(C)[C@@H]3C=C[C@]35OC[C@@]6(CCC(C)(C)C[C@H]63)[C@H](O)C[C@]54C)[C@]2(C)CO)[C@H](O)[C@@H](O[C@@H]2O[C@H](CO)[C@@H](O)[C@H](O)[C@H]2O)[C@H]1O , result: 5.4

// cC0-C2 FLT change (% change from DMSO, FLT of TMR-MyBP-C) lookup, molecule = CCN(CC)CCCC(C)Nc1ccnc2cc(Cl)ccc12 (centres unmarked) [Chloroquine phosphate] , result: 2.5

// cC0-C2 FLT change (% change from DMSO, FLT of TMR-MyBP-C) lookup, molecule = Cc1nc(-c2ccc(OCC(C)C)c(C#N)c2)sc1C(=O)O , result: 9.6

* * *

System: TMR-cC0-C2
methodDescription: Selleck library HTS, 532 nm excitation (FLT of TMR-cC0-C2 in presence of FMAL-actin)
Assay type: binding, human
experimentalConditions: initial screen, 30 μM compound
experimentalReadout: 532-nm Δτ, Repeat 1

# molecule, 532-nm Δτ, Repeat 1
rows = [
    ("COc1cc(Nc2ncc(F)c(Nc3ccc4c(n3)N(COP(=O)(O)O)C(=O)C(C)(C)O4)n2)cc(OC)c1OC [Fostamatinib (R788), Fostamatinib]", "-0.027 ns"),
]

// 532-nm Δτ, Repeat 1 lookup, molecule = CCCCNc1ccc(C(=O)OCCOCCOCCOCCOCCOCCOCCOCCOCCOC)cc1 [Benzonatate] , result: -0.101 ns

// 532-nm Δτ, Repeat 1 lookup, molecule = CNC(=O)c1cc(Oc2ccc(NC(=O)Nc3ccc(Cl)c(C(F)(F)F)c3)c(F)c2)ccn1 , result: 0.099 ns

// 532-nm Δτ, Repeat 1 lookup, molecule = O=C(c1ccc(OCCN2CCCCC2)cc1)c1c(-c2ccc(O)cc2)sc2cc(O)ccc12 , result: -0.025 ns

// 532-nm Δτ, Repeat 1 lookup, molecule = C[C@@H]1O[C@@H](OC[C@H]2O[C@@H](Oc3c(-c4ccc(OCCO)c(OCCO)c4)oc4cc(OCCO)cc(O)c4c3=O)[C@H](O)[C@@H](O)[C@@H]2O)[C@H](O)[C@H](O)[C@H]1O , result: 0.074 ns

// 532-nm Δτ, Repeat 1 lookup, molecule = Oc1cccc2cccnc12 [8-Hydroxyquinoline] , result: -0.167 ns

// 532-nm Δτ, Repeat 1 lookup, molecule = CN(C)[C@@H]1C(O)=C(C(N)=O)C(=O)[C@@]2(O)C(O)=C3C(=O)c4c(O)cccc4[C@@](C)(O)[C@H]3[C@H](O)[C@@H]12 , result: -0.019 ns

// 532-nm Δτ, Repeat 1 lookup, molecule = CCCCCCCCCCCCCCCC(=O)O[C@@H]1[C@@H](O)[C@@H](O)[C@@H]([C@H](NC(=O)[C@@H]2C[C@@H](CCC)CN2C)[C@H](C)Cl)O[C@@H]1SC.Cl [Clindamycin palmitate HCl] , result: -0.075 ns

// 532-nm Δτ, Repeat 1 lookup, molecule = C[C@@H]1O[C@@H](O[C@H]2[C@H](O[C@H]3CC[C@@]4(C)[C@@H](CC[C@]5(C)[C@@H]4CC=C4[C@@H]6CC(C)(C)CC[C@]6(C(=O)O)CC[C@]45C)[C@]3(C)CO)OC[C@H](O)[C@@H]2O)[C@H](O)[C@H](O)[C@H]1O , result: 0.105 ns

// 532-nm Δτ, Repeat 1 lookup, molecule = C#Cc1cccc(Nc2ncnc3cc(OCCOC)c(OCCOC)cc23)c1 , result: 0.100 ns

// 532-nm Δτ, Repeat 1 lookup, molecule = CCN(C(=O)c1c(O)c2c(Cl)cccc2n(C)c1=O)c1ccccc1 , result: -0.017 ns

* * *

Test system: FMAL-actin/TMR-fC1-C2 interaction
methodDescription: FLT-FRET concentration-response assay, FMAL-actin plus TMR-fC1-C2
Format: binding
experimentalReadout: effect on FLT-FRET / binding between FMAL-actin and TMR-fC1-C2 (in words)

# compound, systemTested, readoutValue
measured = [
    ("CCCCC(=O)N(Cc1ccc(-c2ccccc2-c2nnn[nH]2)cc1)[C@H](C(=O)O)C(C)C", "FMAL-actin/TMR-fC1-C2 interaction", "decreased"),
    ("COC(=O)N[C@H](C(=O)N1CCC[C@H]1c1nc(-c2ccc3c(c2)O[C@@H](c2ccccc2)n2c-3cc3cc(-c4c[nH]c([C@@H]5CCCN5C(=O)[C@@H](NC(=O)OC)C(C)C)n4)ccc32)c[nH]1)C(C)C", "FMAL-actin/TMR-fC1-C2 interaction", "decreased"),
    ("CCC(=O)O[C@H]1[C@H](O[C@@H]2[C@@H](C)[C@H](O[C@H]3C[C@@](C)(OC)[C@@H](O)[C@H](C)O3)[C@@H](C)C(=O)O[C@H](CC)[C@@](C)(O)[C@H](O)[C@@H](C)C(=O)[C@H](C)C[C@@]2(C)O)O[C@H](C)C[C@@H]1N(C)C [Erythromycin estolate]", "FMAL-actin/TMR-fC1-C2 interaction", "decreased"),
]

* * *

System: FMAL-actin plus TMR-cC0-C2
methodDescription: Selleck library HTS, 473 nm excitation (FLT of FMAL-actin with TMR-cC0-C2, FLT-FRET)
Format: binding, human
experimentalConditions: initial screen, 30 μM compound
Just a reminder that ties go to FALSE: only 473-nm Δτ, Repeat 1 strictly below 0.1 ns counts as TRUE.

# compound, cat
rows = [
    ("C[n+]1cc2c3c(ccc2c2ccc4cc5c(cc4c21)OCO5)OCO3 [Sanguinarine chloride]", "TRUE"),
]

Report whether reported 473-nm Δτ, Repeat 1 is lower than 0.1 ns (strictly) for CN1CCCN=C1/C=C/c1cccs1 [Pyrantel pamoate] FALSE

* * *

System: FMAL-actin plus TMR-cC0-C2
methodDescription: Selleck library HTS, 473 nm excitation (FLT of FMAL-actin with TMR-cC0-C2, FLT-FRET)
Type: binding, human
experimentalConditions: initial screen, 30 μM compound
Method: Fluorescence lifetime (FLT) measurements were acquired using a high-throughput FLT plate reader (Fluorescence Innovations, Inc) ([14], [27]), provided by Photonic Pharma LLC. […] The observed waveforms were analyzed as described previously ([15], [28]). In total, 50 nl of each solution was dispensed in DMSO using an automated Echo 550 acoustic liquid dispenser (Labcyte). […] Plates were incubated at room temperature for 60 min before recording the data with the fluorescence lifetime plate reader. […]
Label rule, in plain words: 473-nm Δτ, Repeat 1 of 0.09 ns and up is yes (1), under 0.09 ns is no (0).

These solved cases illustrate the format of a correct answer.
# molecule, cat
measured = [
    ("Cc1ccc(Nc2c(F)cccc2Cl)c(CC(=O)O)c1 [Lumiracoxib]", "yes (1)"),
    ("C[C@@H]1O[C@@H](O[C@H]2[C@H](O[C@H]3CC[C@@]4(C)[C@@H](CC[C@]5(C)[C@@H]4CC=C4[C@@H]6CC(C)(C)CC[C@]6(C(=O)O)CC[C@]45C)[C@]3(C)CO)OC[C@H](O)[C@@H]2O)[C@H](O)[C@H](O)[C@H]1O [α-Hederin]", "no (0)"),
    ("CCCCC(=O)N(Cc1ccc(-c2ccccc2-c2nnn[nH]2)cc1)[C@H](C(=O)O)C(C)C [Valsartan]", "yes (1)"),
    ("C[C@@H](O)[C@H]1C(=O)N2C(C(=O)[O-])=C(S[C@@H]3CN[C@H](C(=O)Nc4cccc(C(=O)O)c4)C3)[C@H](C)[C@H]12.[Na+] [Ertapenem sodium]", "yes (1)"),
    ("Cc1nc(-c2ccc(OCC(C)C)c(C#N)c2)sc1C(=O)O [Febuxostat]", "no (0)"),
    ("C[C@@H]1O[C@@H](OC[C@H]2O[C@@H](Oc3c(-c4ccc(OCCO)c(OCCO)c4)oc4cc(OCCO)cc(O)c4c3=O)[C@H](O)[C@@H](O)[C@@H]2O)[C@H](O)[C@H](O)[C@H]1O [Troxerutin]", "no (0)"),
]

473-nm Δτ, Repeat 1 >= 0.09 ns for C[C@H](CCC(=O)O)[C@H]1CC[C@H]2[C@@H]3C[C@H](O)[C@@H]4C[C@H](O)CC[C@]4(C)[C@H]3CC[C@]12C [Hyodeoxycholic acid (HDCA), Hyodeoxycholic acid] ? yes (1)
